Each record here notes measured koff.
Target: T1, human CD20 (human, UniProt P11836 1-297)
T1 construct: whole, on cells; Always presented on cells; also called MS4A1; CD20 WT
T1 sequence (looked up): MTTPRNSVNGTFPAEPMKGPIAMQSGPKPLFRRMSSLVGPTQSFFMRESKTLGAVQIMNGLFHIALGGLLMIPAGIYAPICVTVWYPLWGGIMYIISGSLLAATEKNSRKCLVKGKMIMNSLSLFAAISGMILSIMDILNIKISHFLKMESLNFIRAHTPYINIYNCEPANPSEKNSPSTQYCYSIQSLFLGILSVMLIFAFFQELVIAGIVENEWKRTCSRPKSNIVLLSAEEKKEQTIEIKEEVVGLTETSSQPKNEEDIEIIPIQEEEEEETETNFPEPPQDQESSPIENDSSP
Assay: LigandTracer Green, 10 nM FITC-labeled mAb on SKBR3-CD20 cells, OneToOne fit, non-competitive dissociation
Procedure: Kinetics analysis of interactions between the mAbs and CD20 was performed by using the LigandTracer green Technology (Ridgeview Instruments AB). 10⁶ SKBR3-CD20 cells were seeded on one side of a 10 cm culture dish (Greiner) as target cell area and association of 10 nM FITC-labeled CD20 mAb was measured. For non-competitive or competitive dissociation, labeled mAb solution was replaced by RPMI culture medium or 100 nM unlabeled mAb of the same clone, respectively. […]
quantity.name: koff

{"binder": "m9 (mIgG2c-CD20 mAb) (antibody, V domains shown, FITC-labelled antibody in the LigandTracer assay; the label positions are not defined., Mouse IgG2c hybridoma mAb; FITC-labeled in LigandTracer) VH: QAYLQQSGAELVRPGASVKMSCKASGYTFPSYNMHWVKQTPRQGLEWIGAIYPGNGDTSYNQKFKGKASQTVDKSSSTVYMQLSSLTSADSAVYFCARSRLFDSSYGWYFDVWGTGTTVTVSS VL: QIVLSQSPAILSAYPGEKVTMTCRARSSVSYIDWYQQKAGSSPKPWIYATSNLASGVPARFSGSGSGTSYSLTISRVEAEDAATYYCQQWTSNPPTFGGGTKLEIK", "recorded.value": "1.13e-05 s⁻¹"}
{"binder": "m1 (mIgG2c-CD20 mAb) (antibody, V domains shown, FITC- or Alexa647-labelled in the kinetic assays; label sites not given, Mouse IgG2c hybridoma mAb; FITC- or Alexa647-labeled in the kinetic assays) VH: QAYLQQSGAELVRPGASVKMSCKASGYTFTSYNLHWVKQTPRQGLEWIGAIYPGNGDTSYNQKFKGKATLTVDKSSSTAYMQLSRLTSEDSAVYFCARSNSYGSTYWYFDVWGTGTTVTVSS VL: QIVLSQSPAVLFASPGEKVTMTCRARSSVSYMDWYQQKPRSSPKPWIYATSNLASGVPARFSGSGSGTSYSLTISRVEAEDAATYYCQQWTSNPPTFGSGTKLEIK", "recorded.value": "3.91e-05 s⁻¹"}
{"binder": "m10 (mIgG2c-CD20 mAb) (antibody, V domains shown, FITC-labelled in the LigandTracer assay; label sites not given, Mouse IgG2c hybridoma mAb; FITC-labeled in LigandTracer) VH: QAYLQQSGADLVRPGASVKMSCKASGFTFPSYNLHWVKQTPRQGLEWIGAIYPGNGDTSYNQKFKGKATLTVDKSSSTAYMQLSSLTSEDSAVYFCARSAYYGSNVWFFDVWGTGTTVTVSS VL: QIVLSQSPAILSASPGEKVTMTCRASSSVSYMDWYQQKPGSSPKPWIYATSNLASGVPTRFSGSGSGTSYSLTISRVEAEDAATYYCQQWISNPPTFGAGTKLDLK", "recorded.value": "8.17e-06 s⁻¹"}
{"binder": "m2 (mIgG2c-CD20 mAb) (antibody, V domains shown, FITC- or Alexa647-labelled in the kinetic assays; label sites not given, Mouse IgG2c hybridoma mAb; FITC- or Alexa647-labeled in the kinetic assays) VH: QAYLQQSGAELVRPGASVKMSCKASGYTFTSYNMHWVKQTPRQGLEWIGGIYPGNGDTSYNQKFKGKATLTVDKSSSTAYMQLSSLTSEDSAVYFCARYYYGSSYGAMDYWGQGTSVTVSS VL: QIVLSQSPAILSASPGEKVTMTCRASSSVSYMHWYQQKPGSSPKPWIYATSNLASGVPARFSGSGSGTSYSLTISRVEAADAATYYCHQWTFNPPTFGGGTKLEIK", "recorded.value": "1.77e-05 s⁻¹"}
